- Tested On: MurF from E. coli (Escherichia coli, UniProt P11880)
- Sequence (P11880 whole entry): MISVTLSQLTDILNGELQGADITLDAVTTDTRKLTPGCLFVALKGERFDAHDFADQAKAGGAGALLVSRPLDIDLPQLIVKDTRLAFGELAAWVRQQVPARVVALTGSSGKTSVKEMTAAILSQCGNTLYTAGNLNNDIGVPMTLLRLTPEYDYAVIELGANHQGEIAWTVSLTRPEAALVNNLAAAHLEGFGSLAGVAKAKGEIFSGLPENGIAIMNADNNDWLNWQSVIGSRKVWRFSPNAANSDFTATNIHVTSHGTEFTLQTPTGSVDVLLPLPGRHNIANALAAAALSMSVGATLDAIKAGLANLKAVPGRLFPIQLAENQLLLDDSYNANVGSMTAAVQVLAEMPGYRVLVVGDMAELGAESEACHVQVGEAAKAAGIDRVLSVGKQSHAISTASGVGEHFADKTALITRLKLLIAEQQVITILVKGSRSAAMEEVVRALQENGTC
- Test Name: Steady-state kinetic analysis of compound 21
- Type: biochemical
- Study Conditions: substrate UM3DAP varied; ATP 500 µM, D-Ala-D-Ala 600 µM fixed
Endpoint: Ki
A complete answer gives the number followed by the unit.

Indicate the recorded Ki value for this molecule: Oc1cc(O)c2c(c1)O[C@H](c1ccc(O)c(O)c1)[C@H](O)C2 [Compound 21, (–)-epicatechin]
70.1 µM

* * *

- Tested On: UniProt P11880
- Test Name: Steady-state kinetic analysis of compound 21
- Type: biochemical
- Study Conditions: substrate ATP varied; UM3DAP 100 µM, D-Ala-D-Ala 600 µM fixed
Endpoint: Ki (µM)
The answer is to be given in µM; state only the numeric part.

Look up and state reported Ki for Oc1cc(O)c2c(c1)O[C@H](c1ccc(O)c(O)c1)[C@H](O)C2 [Compound 21, (–)-epicatechin]
28.5

* * *

Consider the following molecules; for each one, report its MIC.
- System: S. aureus (ATCC 29,213)
- Test Name: Antibacterial assay, broth microdilution MIC
- Type: cell-based
- Study Conditions: Staphylococcus aureus, ATCC29; broth microdilution, 20 h at 35 °C; read-out: MIC S.aureus

Using the record for O=c1cc(-c2ccccc2)oc2cc(O)cc(O)c12 [Compound 17] , state its measured MIC.
> 250 µM

Return MIC for the following molecule: CC1OC(Oc2c(-c3cc(O)c(O)c(O)c3)oc3cc(O)cc(O)c3c2=O)C(O)C(O)C1O (stereo not shown) [Compound 11]
> 250 µM

Tell me its MIC given CC1OC(OCC2OC(Oc3c(-c4ccc(O)c(O)c4)oc4cc(O)cc(O)c4c3=O)C(O)C(O)C2O)C(O)C(O)C1O (stereo not shown) [Compound 7] as the entry.
> 250 µM

// Input: Cc1c(O)cc(O)c2c1O[C@H](c1ccccc1)CC2=O [Compound 4] . Output its MIC only.
> 250 µM

Kindly indicate its recorded MIC. Item: O=c1c(O)c(-c2ccccc2)oc2cc(O)cc(O)c12 [Compound 16]
250 µM

# return recorded MIC for input Oc1cc(O)c2c(c1)O[C@H](c1ccc(O)c(O)c1)[C@@H](O)C2 [Compound 22, (+)-catechin]
> 250 µM

Return MIC for the following molecule: COc1cc(O)c2c(=O)c(O)c(-c3ccc(O)c(O)c3)oc2c1 [Compound 13]
> 250 µM

Please look at this molecule and report its MIC: COc1ccc([C@@H]2CC(=O)c3c(O)cc(O)cc3O2)cc1O [Compound 1]
> 250 µM

Please list MIC recorded for the molecule COc1cc([C@@H]2[C@H]3CO[C@@]4(O)C(=O)[C@@H]2C=C([C@H]2Oc5cc(O)cc(O)c5C(=O)[C@@H]2O)[C@@H]34)ccc1O [Compound 24, silydianin]
> 250 µM

Give the reported MIC for this molecule. COc1cc(O)c(CC=C(C)C)c(O)c1C(=O)/C=C/c1ccc(O)cc1 [Compound 23, xanthohumol]
31 µM

Determine from records and report MIC for COc1cc(O)c(CC=C(C)C)c2c1C(=O)C[C@@H](c1ccc(O)cc1)O2 [Compound 2]
250 µM

Give MIC for Oc1cc(O)c2c(c1)O[C@H](c1ccc(O)c(O)c1)[C@H](O)C2 [Compound 21, (–)-epicatechin]
> 250 µM

Please report the measured MIC for O=c1c(OC2OC(CO)C(O)C(O)C2O)c(-c2ccc(O)c(O)c2)oc2cc(O)cc(O)c12 (stereo not shown) [Compound 9]
> 250 µM

Output MIC of O=c1cc(-c2ccc(O)c(O)c2)oc2cc(OC3OC(CO)C(O)C(O)C3O)cc(O)c12 (stereo not shown) [Compound 15]
> 250 µM

Identify the reported MIC for the following entry. Oc1cc(O)c2c(c1)O[C@H](c1ccc(O)c(O)c1)[C@@H](O)[C@H]2O [Compound 20, Leucocyanidin]
> 250 µM

Dear colleague, please send me the reported MIC for O=C1C[C@@H](c2ccc(O)cc2)Oc2cc(O)cc(O)c21 [Compound 5] when you can.
> 250 µM

Numbers sourced from paper PMC10618370.
